Measured IC50, listed per entry for reference.
molecular target: full length AKT E17K (Homo sapiens, UniProt P31749, E17K); construct: host or cells: HEK-293 (ATCC CRL-1573); experiment: NanoBRET Target Engagement (TE) Assay; format: cell-based; settings: competitive displacement of tracer in cells, read-out: AKT1 E17K IC50
Sequence (P31749 whole entry E17K): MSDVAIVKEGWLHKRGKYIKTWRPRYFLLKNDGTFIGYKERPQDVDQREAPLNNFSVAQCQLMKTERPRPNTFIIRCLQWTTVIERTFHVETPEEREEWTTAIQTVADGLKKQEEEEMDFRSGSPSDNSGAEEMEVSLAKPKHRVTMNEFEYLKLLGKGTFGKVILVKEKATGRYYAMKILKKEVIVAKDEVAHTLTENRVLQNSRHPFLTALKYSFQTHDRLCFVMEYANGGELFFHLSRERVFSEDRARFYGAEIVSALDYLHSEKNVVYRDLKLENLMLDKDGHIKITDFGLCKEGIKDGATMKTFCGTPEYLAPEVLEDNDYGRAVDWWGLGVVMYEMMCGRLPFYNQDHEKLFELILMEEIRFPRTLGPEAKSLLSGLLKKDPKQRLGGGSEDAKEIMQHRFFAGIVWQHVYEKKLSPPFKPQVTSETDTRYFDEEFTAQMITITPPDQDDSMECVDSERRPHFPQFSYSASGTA

# molecule, IC50
records = [
    ("N#Cc1nccc(NC2CCN(Cc3ccc(-n4c(-c5cccnc5N)nc5ccc(-c6cccc(F)c6)nc54)cc3)CC2)n1 [Example 357]", "15 to 60 nM"),
    ("[2H]C([2H])([2H])Oc1ccc(-c2ccc3nc(-c4cccnc4N)n(-c4ccc(CN5CCC(Nc6ccnc(C#N)n6)CC5)cc4)c3n2)cn1 [Example 598]", "< 15 nM"),
    ("C[C@@H]1CN(Cc2ccc(-n3c(-c4cccnc4N)nc4ccc(-c5ccccc5)nc43)cc2)C[C@H](C)N1c1cc(C#N)ncn1 [Example 380]", "600 to 10000 nM"),
    ("COc1cc(-c2ccc3nc(-c4cccnc4N)n(-c4ccc(CN5CCC(Nc6ccnc(C#N)n6)CC5)cc4)c3n2)ccn1 [Example 511]", "< 15 nM"),
    ("COc1cc(-c2ccc3nc(-c4cccnc4N)n(-c4ccc(CN5CCC(Nc6ccnc(C#N)n6)CC5)cc4)c3n2)ccc1F [Example 439]", "< 15 nM"),
    ("N#Cc1nccc(NC2CCN(Cc3ccc(-n4c(-c5cccnc5N)nc5ccc(-c6ccc[nH]c6=O)nc54)cc3)CC2)n1 [Example 538]", "15 to 60 nM"),
    ("N#Cc1ccnc(-c2ccc3nc(-c4cccnc4N)n(-c4ccc(CN5CCC(Nc6ccnc(C#N)n6)CC5)cc4)c3n2)c1 [Example 548]", "< 15 nM"),
    ("Cc1nc2c(cc1C#N)nc(-c1cccnc1N)n2-c1ccc(CN2CCC(Nc3ccnc(C#N)n3)CC2)cc1 [Example 550]", "< 15 nM"),
    ("[2H]C([2H])([2H])Nc1ccc2nc(-c3cccnc3N)n(-c3ccc(CN4CCC(Nc5ccnc(C#N)n5)CC4)cc3)c2n1 [Example 459]", "< 15 nM"),
    ("[2H]C([2H])(c1ccc(-n2c(-c3cccnc3N)nc3cccnc32)cc1)N1CCC(Nc2ccnc(C#N)n2)CC1 [Example 385]", "15 to 60 nM"),
    ("N#Cc1nccc(NC2CCN(Cc3ccc(-n4c(-c5cccnc5N)nc5ccc([C@H]6CCOC6)nc54)cc3)CC2)n1 (single isomer, unassigned) [Example 507]", "< 15 nM"),
    ("N#Cc1ccnc(N2C[C@@H]3C[C@H]2CN3Cc2ccc(-n3c(-c4cccnc4N)nc4ccc(-c5ccccc5)nc43)cc2)n1 [Example 377]", "60 to 600 nM"),
    ("N#Cc1nccc(NC2CCN(Cc3ccc(-n4c(-c5nccnc5N)nc5ccc(-c6cnn(CC(N)=O)n6)nc54)cc3)CC2)n1 [Example 633]", "15 to 60 nM"),
]

* * *

target: full length AKT E17K (Homo sapiens, UniProt P31749, E17K); construct: host or cells: HEK-293 (ATCC CRL-1573); experiment: NanoBRET Target Engagement (TE) Assay; format: cell-based; settings: competitive displacement of tracer in cells, read-out: AKT1 E17K IC50
experimental.endpoint: IC50

# molecule, tested.target, recorded.result
records = [
    ("N#Cc1nccc(NC2CCN(Cc3ccc(-n4c(-c5cccnc5N)nc5ccc([C@@H]6CCOC6)nc54)cc3)CC2)n1 (single isomer, unassigned) [Example 506]", "full length AKT E17K (Homo sapiens, UniProt P31749, E17K)", "< 15 nM"),
    ("N#Cc1ncnc(N2CCC3(CCN(Cc4ccc(-n5c(-c6cccnc6N)nc6ccc(-c7ccccc7)nc65)cc4)CC3)CC2)n1 [Example 365]", "full length AKT E17K (Homo sapiens, UniProt P31749, E17K)", "15 to 60 nM"),
    ("CCn1ncc(-c2ccc3nc(-c4nccnc4N)n(-c4ccc(CN5CCC(Nc6ccnc(C#N)n6)CC5)cc4)c3n2)n1 [Example 629]", "full length AKT E17K (Homo sapiens, UniProt P31749, E17K)", "< 15 nM"),
    ("N#Cc1nccc(NC2CCN(Cc3ccc(-n4c(-c5cccnc5N)nc5cncnc54)cc3)CC2)n1 [Example 505]", "full length AKT E17K (Homo sapiens, UniProt P31749, E17K)", "60 to 600 nM"),
    ("CNc1ccc2nc(-c3cccnc3N)n(-c3ccc(CN4CCC(Nc5ccnc(C#N)n5)CC4)cc3)c2n1 [Example 457]", "full length AKT E17K (Homo sapiens, UniProt P31749, E17K)", "15 to 60 nM"),
    ("N#Cc1nccc(NC2CCN(Cc3ccc(-n4c(-c5cccnc5N)nc5ccc(-c6ccc(OC7CC7)nc6)nc54)cc3)CC2)n1 [Example 641]", "full length AKT E17K (Homo sapiens, UniProt P31749, E17K)", "< 15 nM"),
    ("N#Cc1nccc(N2CCC3(CC2)CN(Cc2ccc(-n4c(-c5cccnc5N)nc5ccc(-c6ccc(F)cc6)nc54)cc2)C3)n1 [Example 491]", "full length AKT E17K (Homo sapiens, UniProt P31749, E17K)", "< 15 nM"),
    ("N#Cc1nccc(N2CCN(Cc3ccc(-n4c(-c5cccnc5N)nc5ccc(-c6ccccc6Cl)nc54)cc3)CC2)n1 [Example 324]", "full length AKT E17K (Homo sapiens, UniProt P31749, E17K)", "< 15 nM"),
    ("N#Cc1nccc(NC2CCN(Cc3ccc(-n4c(-c5ccccc5)nc5ccc(-c6ccc(F)cn6)nc54)cc3)CC2)n1 [Example 577]", "full length AKT E17K (Homo sapiens, UniProt P31749, E17K)", "15 to 60 nM"),
    ("C[C@@H]1CN(Cc2ccc(-n3c(-c4cccnc4N)nc4ccc(-c5ccccc5)nc43)cc2)C[C@H](C)N1c1ccnc(C#N)n1 [Example 378]", "full length AKT E17K (Homo sapiens, UniProt P31749, E17K)", "60 to 600 nM"),
    ("N#Cc1nccc(NC2CCN(Cc3ccc(-n4c(-c5cccnc5N)nc5ccc(CF)nc54)cc3)CC2)n1 [Example 509]", "full length AKT E17K (Homo sapiens, UniProt P31749, E17K)", "< 15 nM"),
    ("N#Cc1nccc(NC2CCN(Cc3ccc(-n4c(-c5cccnc5N)nc5ccccc54)cc3)CC2)n1 [Example 532]", "full length AKT E17K (Homo sapiens, UniProt P31749, E17K)", "60 to 600 nM"),
    ("COc1cnccc1-c1ccc2nc(-c3cccnc3N)n(-c3ccc(CN4CCC(Nc5ccnc(C#N)n5)CC4)cc3)c2n1 [Example 515]", "full length AKT E17K (Homo sapiens, UniProt P31749, E17K)", "< 15 nM"),
    ("N#Cc1nccc(NC2CCN(Cc3ccc(-n4c(-c5cccnc5N)nc5ccc(-c6cnsc6)nc54)cc3)CC2)n1 [Example 480]", "full length AKT E17K (Homo sapiens, UniProt P31749, E17K)", "< 15 nM"),
    ("Cc1ccccc1-c1ccc2nc(-c3cccnc3N)n(-c3ccc(CN4CCC(Nc5ccnc(C#N)n5)CC4)cc3)c2n1 [Example 527]", "full length AKT E17K (Homo sapiens, UniProt P31749, E17K)", "< 15 nM"),
    ("N#Cc1nccc(NC2CCN(Cc3ccc(-n4c(-c5cncnc5N)nc5ccc(-c6ccc(F)cn6)nc54)cc3)CC2)n1 [Example 573]", "full length AKT E17K (Homo sapiens, UniProt P31749, E17K)", "15 to 60 nM"),
    ("COC(=O)c1ccc2nc(-c3cccnc3N)n(-c3ccc(CN4CCC(Nc5ccnc(C#N)n5)CC4)cc3)c2n1 [Example 414]", "full length AKT E17K (Homo sapiens, UniProt P31749, E17K)", "< 15 nM"),
    ("CC(C)n1cc(-c2ccc3nc(-c4cccnc4N)n(-c4ccc(CN5CCC(Nc6ccnc(C#N)n6)CC5)cc4)c3n2)nn1 [Example 611]", "full length AKT E17K (Homo sapiens, UniProt P31749, E17K)", "< 15 nM"),
    ("N#Cc1ncnc(N2CCN(Cc3ccc(-n4c(-c5cccnc5N)nc5ccc(-c6ccc(Cl)cc6)nc54)cc3)CC2)n1 [Example 369]", "full length AKT E17K (Homo sapiens, UniProt P31749, E17K)", "15 to 60 nM"),
]

Hey, just so you know, these numbers are from patent US12209087B2.
